# Study Target: UniProt:P11511
# Assay Method Text: Inhibition of aromatase in human placental microsomes at 20 ug/ml by radiometric method relative to control
# Set-up: species or system Placenta; scale not given: the % may be the effect or the level left
# Setup Conditions: read-out: Activity
Response field label: string, one of satisfied (activity at 20 µg/mL strictly below 20%) or not satisfied.

[Q] Quick check: does CC/C=C\C/C=C\C/C=C\C/C=C\C/C=C\CCCC(=O)O have activity at 20 µg/mL under 20%?
[A] not satisfied

[Q] hey, is activity at 20 µg/mL for CCCCC/C=C\C/C=C\C/C=C\C/C=C\CCCC(=O)O lower than 20% or not?
[A] satisfied

[Q] Is the reported activity at 20 µg/mL for CCCCCCCCCCCCCC(=O)O strictly below 20%?
[A] not satisfied

[Q] Is 20% strictly greater than the molecule's reported activity at 20 µg/mL? molecule: CCCCC/C=C\C/C=C\CCCCCCCC(=O)O
[A] not satisfied

[Q] Please state whether activity at 20 µg/mL is below 20% for CC/C=C\C/C=C\C/C=C\C/C=C\C/C=C\CCCCCC(=O)O
[A] satisfied

[Q] Dear colleague, could you confirm whether activity at 20 µg/mL of CCCCCCCCCCCCCCC(=O)O falls below 20%? Thanks.
[A] not satisfied

[Q] Dear reviewer, please state whether CC/C=C\C/C=C\C/C=C\C/C=C\C/C=C\C/C=C\CCC(=O)O has activity at 20 µg/mL strictly beneath 20%.
[A] satisfied

[Q] Field: below-cutoff. Rule: recorded activity at 20 µg/mL strictly less than 20%. Subject: CC/C=C\C/C=C\C/C=C\CCCCCCCC(=O)O
[A] not satisfied

[Q] hey, is activity at 20 µg/mL for CCCCCCCCCCCCCCCCCC(=O)O lower than 20% or not?
[A] not satisfied

[Q] Answer whether the molecule CCCCCCCCCCCCCCCC(=O)O has activity at 20 µg/mL strictly less than 20%
[A] not satisfied

###

# Study Target: Aromatase (Homo sapiens)
# Sequence (P11511 whole entry): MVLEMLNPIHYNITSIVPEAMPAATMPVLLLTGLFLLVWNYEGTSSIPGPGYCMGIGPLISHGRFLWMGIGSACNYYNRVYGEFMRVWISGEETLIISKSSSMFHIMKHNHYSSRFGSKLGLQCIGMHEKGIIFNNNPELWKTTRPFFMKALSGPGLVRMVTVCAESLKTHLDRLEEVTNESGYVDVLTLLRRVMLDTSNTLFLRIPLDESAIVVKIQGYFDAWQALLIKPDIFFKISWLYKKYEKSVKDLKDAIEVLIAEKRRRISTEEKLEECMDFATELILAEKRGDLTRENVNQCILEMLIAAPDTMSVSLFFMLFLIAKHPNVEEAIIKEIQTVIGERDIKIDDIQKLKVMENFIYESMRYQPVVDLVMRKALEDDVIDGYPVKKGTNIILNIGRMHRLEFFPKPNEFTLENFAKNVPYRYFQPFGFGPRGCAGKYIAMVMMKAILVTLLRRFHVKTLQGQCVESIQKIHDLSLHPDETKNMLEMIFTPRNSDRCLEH
Reported Property: IC50 (µM)
One number for each entry, in µM.

compound="CCCCC/C=C\\C/C=C\\C/C=C\\C/C=C\\CCCC(=O)O [ARACHIDONIC ACID]" display_unit=µM obs_value=28.2
compound="CC/C=C\\C/C=C\\C/C=C\\CCCCCCCC(=O)O [LINOLENIC ACID]" display_unit=µM obs_value=44.2
compound="CCCCC/C=C\\C/C=C\\CCCCCCCC(=O)O [LINOLEIC ACID]" display_unit=µM obs_value=48

IC50 on Aromatase (Homo sapiens) for CC/C=C\C/C=C\C/C=C\C/C=C\C/C=C\C/C=C\CCC(=O)O [DOCONEXENT] is 33.2
